// each record: one item and its pKi for Neuromedin-K receptor (Homo sapiens)
// pKi: -log10(molar conc.)

Recorded pKi, per entry:
1. O=C(NC(CCO)c1ccccc1)c1cc(-c2ccccc2)nc2ccccc12 (stereo not given) :: 6.40
2. CCC(NC(=O)c1c(N)c(-c2cccc(F)c2)nc2ccccc12)c1ccccc1 (stereo not given) :: 8.40
3. Nc1c(-c2cccc(F)c2)nc2ccccc2c1C(=O)NC(c1ccccc1)C1CC1 (stereo not given) :: 8.00
4. Nc1c(-c2ccccc2)nc2ccccc2c1C(=O)NC(c1ccccc1F)C1CC1 (stereo not given) :: 8.30
5. CN(C)C(=O)C(NC(=O)c1cc(-c2ccccc2)nc2ccccc12)c1ccccc1 (stereo not given) :: 6.30
6. CCC(NC(=O)c1c(N)c(-c2ccc(F)cc2)nc2ccccc12)c1ccccc1 (stereo not given) :: 8.10

**Q:** What value of pKi on Neuromedin-K receptor (Homo sapiens) does O=C(NC(c1ccccc1)C(F)(F)F)c1cc(-c2ccccc2)nc2ccccc12 (stereo not given) have?
**A:** 6.30

**Q:** What value of pKi on Neuromedin-K receptor (Homo sapiens) does Nc1c(-c2ccccc2)nc2ccccc2c1C(=O)NC(c1ccccc1)C1CC1 (stereo not given) have?
**A:** 8.30

**Q:** What value of pKi on Neuromedin-K receptor (Homo sapiens) does CC(C)C(NC(=O)c1cc(-c2ccccc2)nc2ccccc12)c1ccccc1 (stereo not given) have?
**A:** 7.10

**Q:** What value of pKi on Neuromedin-K receptor (Homo sapiens) does CC(NC(=O)c1cc(-c2ccccc2)nc2ccccc12)c1ccccc1 (stereo not given) have?
**A:** 6.60

**Q:** What value of pKi on Neuromedin-K receptor (Homo sapiens) does O=C(NC(CO)c1ccccc1)c1cc(-c2ccccc2)nc2ccccc12 (stereo not given) have?
**A:** 6.70

**Q:** What value of pKi on Neuromedin-K receptor (Homo sapiens) does CCC(NC(=O)c1c(OC)c(-c2ccccc2)nc2ccccc12)c1ccccc1 (stereo not given) have?
**A:** 8.20

**Q:** What value of pKi on Neuromedin-K receptor (Homo sapiens) does CCC(NC(=O)c1c(-c2ccccc2)c(-c2ccccc2)nc2ccccc12)c1ccccc1 (stereo not given) have?
**A:** 7.30

**Q:** What value of pKi on Neuromedin-K receptor (Homo sapiens) does CCCCC(NC(=O)c1cc(-c2ccccc2)cc2ccccc12)c1ccccc1 (stereo not given) have?
**A:** 6.80

**Q:** What value of pKi on Neuromedin-K receptor (Homo sapiens) does Nc1c(-c2ccccc2)nc2ccccc2c1C(=O)NC(c1cccc(F)c1)C1CC1 (stereo not given) have?
**A:** 8.50
